Please go through the items and note down their ΔTm.
# measurement target: Tyrosine-protein kinase ABL1 (Homo sapiens)
# study conditions: Compound concentration 20.0 uM, Protein concentration 2.0 uM, Result type QC Liability
# Description: Thermal Shift Assay. Domain: start/stop: S229-K512
Reply with a number, then the unit it belongs to.

Would you please look over these solved cases?
CC#CCC(C)[C@H](O)/C=C/[C@@H]1[C@H]2C/C(=C/CCCC(=O)O)C[C@H]2C[C@H]1O (stereo partly specified) ... -0.29 °C
Cc1csc(-c2nnc(Nc3ccc(Oc4ncccc4-c4ccnc(N)n4)cc3)c3ccccc23)c1 ... 7.01 °C
O=C1Nc2ccc(I)cc2/C1=C/c1cc(Br)c(O)c(Br)c1 ... 2.98 °C
CCN(C(=O)c1cc(F)ccc1Oc1cncnc1N1CC2(CCN(C[C@H]3CC[C@H](NS(=O)(=O)CC)CC3)CC2)C1)C(C)C ... 0.01 °C
Cc1ccccc1Oc1cc(-n2c(=O)cc(C(F)(F)F)[nH]c2=O)c2ccccc2c1Cl ... -0.09 °C
CCCN1C(=O)c2ccc(Cl)cc2Nc2ncccc21 ... 0.81 °C

Here are 2 compounds. What values of ΔTm were reported for them?
1. CCN1CCN(Cc2ccc(C(=O)Nc3ccc(C)c(Oc4ccc5c(c4)CC(=O)N5)c3)cc2C(F)(F)F)CC1
2. Cc1cn([C@H](C)CC#N)c(=O)c2cc(Cn3nc(C(F)F)cc3Cl)nn12

Result:
["12.9 °C", "0.14 °C"]

###

# measurement target: Tyrosine-protein kinase ABL1 (Homo sapiens) (UniProt P00519)
# Sequence (P00519 whole entry): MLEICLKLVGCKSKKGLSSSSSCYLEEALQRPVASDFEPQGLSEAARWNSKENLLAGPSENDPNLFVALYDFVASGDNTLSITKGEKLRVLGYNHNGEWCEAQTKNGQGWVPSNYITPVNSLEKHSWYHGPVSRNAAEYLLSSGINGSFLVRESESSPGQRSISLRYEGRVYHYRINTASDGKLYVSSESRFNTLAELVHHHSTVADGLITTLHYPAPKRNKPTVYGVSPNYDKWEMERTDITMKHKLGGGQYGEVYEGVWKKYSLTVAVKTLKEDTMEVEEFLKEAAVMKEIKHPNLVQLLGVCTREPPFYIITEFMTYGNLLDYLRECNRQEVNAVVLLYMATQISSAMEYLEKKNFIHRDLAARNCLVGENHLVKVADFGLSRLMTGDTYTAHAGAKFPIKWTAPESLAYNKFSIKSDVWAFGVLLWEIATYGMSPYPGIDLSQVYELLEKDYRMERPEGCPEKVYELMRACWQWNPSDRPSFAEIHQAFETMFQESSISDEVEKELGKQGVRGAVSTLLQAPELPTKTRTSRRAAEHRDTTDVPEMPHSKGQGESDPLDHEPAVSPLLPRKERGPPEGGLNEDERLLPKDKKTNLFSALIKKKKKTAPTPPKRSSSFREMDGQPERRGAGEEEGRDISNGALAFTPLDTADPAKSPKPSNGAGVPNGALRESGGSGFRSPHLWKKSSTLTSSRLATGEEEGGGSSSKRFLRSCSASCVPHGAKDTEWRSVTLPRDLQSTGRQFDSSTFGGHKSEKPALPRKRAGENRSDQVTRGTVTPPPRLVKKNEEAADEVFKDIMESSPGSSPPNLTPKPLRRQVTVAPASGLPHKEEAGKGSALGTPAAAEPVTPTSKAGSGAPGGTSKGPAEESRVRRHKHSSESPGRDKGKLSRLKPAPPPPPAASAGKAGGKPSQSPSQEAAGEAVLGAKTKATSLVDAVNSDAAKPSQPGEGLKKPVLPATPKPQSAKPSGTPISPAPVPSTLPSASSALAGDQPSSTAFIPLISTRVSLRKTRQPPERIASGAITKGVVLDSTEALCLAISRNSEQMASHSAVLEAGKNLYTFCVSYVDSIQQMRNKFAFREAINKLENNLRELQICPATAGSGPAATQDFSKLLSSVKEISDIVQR
# study conditions: Compound concentration 20.0 uM, Protein concentration 2.0 uM, Result type QC Liability
attribute measured: ΔTm (°C)
One number for each entry, in °C.

Would you please look over these solved cases?
CN1CCN(C(=O)c2ccc(N(C)c3ncc(C(F)(F)F)c(N[C@@H]4CCC[C@@H]4C(N)=O)n3)cc2)CC1 ... -0.2
CN1CCN(c2ccc(/C=C(\C#N)c3ccccc3Br)cc2)CC1 ... -0.04

Continue with the compound presented below.
Q: I have this compound here, COCCCS(=O)(=O)c1cc(C)c(-c2ccc(F)c3c2CC[C@H]3Oc2ccc3c(c2)OC[C@H]3CC(=O)O)c(C)c1 , and I need its recorded ΔTm.
Result: 0.43
